- targetOrSystem: β-lactamase, Ent. Cloacae P99 (Enterobacter cloacae)
- Construct: preparation not described
- Sequence (P05364 21-381): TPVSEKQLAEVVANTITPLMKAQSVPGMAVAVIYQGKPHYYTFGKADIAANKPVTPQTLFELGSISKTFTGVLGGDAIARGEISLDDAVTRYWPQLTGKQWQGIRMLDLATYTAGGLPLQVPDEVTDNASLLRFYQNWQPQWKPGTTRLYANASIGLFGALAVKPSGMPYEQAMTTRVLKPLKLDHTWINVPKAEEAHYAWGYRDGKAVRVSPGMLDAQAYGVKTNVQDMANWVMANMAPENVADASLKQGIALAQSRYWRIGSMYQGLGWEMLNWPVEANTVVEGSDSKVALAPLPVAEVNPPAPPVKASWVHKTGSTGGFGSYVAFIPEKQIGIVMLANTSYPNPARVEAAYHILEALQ
- testProtocol: β-Lactamase inhibition, automated hydroxyamine assay
- Type: biochemical
- settings: maximum concentration 20 μg/ml, read-out: concentration of compound for 50% inhibition of enzyme (converted)
IC50 reference

compound: CC[S+]([O-])C1=C(C(=O)OCc2ccccc2)N2C(=O)[C@@H](C(C)(C)O)[C@H]2C1 (relative stereo) [Compound 84]
IC50, µM: 10.3

compound: CC[S+]([O-])C1=C(C(=O)OCc2ccccc2)N2C(=O)[C@H](C(C)(C)O)[C@H]2C1 (relative stereo)
IC50, µM: 21.7

compound: CC[S+]([O-])C1=C(C(=O)OC2OC(=O)c3ccccc32)N2C(=O)C(CC=CC(=O)OC)C2C1 (stereo not shown)
IC50, µM: 19.2

compound: CC[S+]([O-])C1=C(C(=O)OCc2ccccc2)N2C(=O)[C@@H](C(C)(C)O)[C@H]2C1 (relative stereo) [Compound 86]
IC50, µM: 6.62
